Target: M₂ receptors (Rattus norvegicus)
Sequence (P10980 1-466): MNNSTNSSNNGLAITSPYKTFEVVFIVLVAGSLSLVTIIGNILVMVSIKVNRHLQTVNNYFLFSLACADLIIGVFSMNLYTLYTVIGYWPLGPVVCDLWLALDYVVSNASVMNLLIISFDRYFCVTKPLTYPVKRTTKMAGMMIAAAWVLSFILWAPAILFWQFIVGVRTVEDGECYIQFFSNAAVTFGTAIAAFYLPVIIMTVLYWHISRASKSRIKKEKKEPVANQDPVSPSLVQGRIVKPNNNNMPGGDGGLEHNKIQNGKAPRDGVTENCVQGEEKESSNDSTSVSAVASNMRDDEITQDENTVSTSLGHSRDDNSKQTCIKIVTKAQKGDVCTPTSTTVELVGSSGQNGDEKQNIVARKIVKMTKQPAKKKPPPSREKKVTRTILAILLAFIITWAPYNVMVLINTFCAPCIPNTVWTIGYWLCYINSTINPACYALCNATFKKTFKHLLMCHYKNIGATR
Let's look at some compounds and their measured Ki.
READOUT KIND: Ki

compound="CN1CCC(C(=O)N2c3ccccc3C(=O)Nc3cccnc32)CC1 [Nuvenzepine]" subject_of_test="M₂ receptors (Rattus norvegicus)" obs_value="248 nM"
compound="CN1CCCC(C(=O)N2c3ccccc3C(=O)Nc3cccnc32)C1 (centres unmarked) [Rispenzepine]" subject_of_test="M₂ receptors (Rattus norvegicus)" obs_value="226 nM"
